Tested on: OV90
Test: Primary qHTS to identify gynecologic anti-cancer compounds using libraries of approved drugs and bioactive compounds (AID 1345084); further: nearly all actives have a fitted effect of over 55% in size
Conditions: Gynecologic cancer cell panel viability, ATPlite luminescence, 48 h; series mostly up to 57.5 µM
Records with an inconclusive call do not appear. Active and inactive are the calls of the source. The call rests on the fitted dose curve; in most records, active means well fitted cell-killing curve with a large enough effect; inconclusive means small, poorly fitted or top-dose-only effect, or effect the other way; inactive means flat fitted curve, though single readings scatter.
Labels: true (active), false (inactive)

>  <COMPOUND>
CC(C)(O)c1cc2nc(-c3cnc(N)nc3)nc(N3CCOCC3)c2s1

>  <ASSIGNED_LABEL>
true

$$$$
>  <COMPOUND>
O=C(Nc1cn[nH]c1-c1nc2ccc(CN3CCOCC3)cc2[nH]1)NC1CC1

>  <ASSIGNED_LABEL>
true

$$$$
>  <COMPOUND>
CC(C)c1cc(C(=O)N2Cc3ccc(CN4CCN(C)CC4)cc3C2)c(O)cc1O

>  <ASSIGNED_LABEL>
true

$$$$
>  <COMPOUND>
COc1cc2c(Oc3ccc(NC(=O)C4(C(=O)Nc5ccc(F)cc5)CC4)cc3F)ccnc2cc1OCCCN1CCOCC1

>  <ASSIGNED_LABEL>
true

$$$$
>  <COMPOUND>
CN(C)Cc1c(C(=O)NCCOc2ccc(C(=O)NO)cc2)oc2ccccc12

>  <ASSIGNED_LABEL>
true

$$$$
>  <COMPOUND>
COc1cc(Nc2ncc(F)c(Nc3ccc4c(n3)N(COP(=O)(O)O)C(=O)C(C)(C)O4)n2)cc(OC)c1OC

>  <ASSIGNED_LABEL>
true

$$$$
>  <COMPOUND>
COc1cc2c(Nc3ccc(NC(=O)c4ccccc4)cc3)ncnc2cc1OCCCN1CCOCC1

>  <ASSIGNED_LABEL>
true

$$$$
>  <COMPOUND>
CCOC(=O)C1=C(C)NC2=C(C(=O)CC(C)(C)C2)C1c1ccc(-c2ccccc2)cc1 (stereo not given)

>  <ASSIGNED_LABEL>
false

$$$$
>  <COMPOUND>
CCCNC(=O)Nc1ccc(Oc2ncnc3cc(OC)c(OC)cc23)cc1Cl

>  <ASSIGNED_LABEL>
false

$$$$
>  <COMPOUND>
COc1ccc2c(c1)CC[C@@H](CN(C)CC(=O)O)[C@H]2c1ccccc1

>  <ASSIGNED_LABEL>
false

$$$$
>  <COMPOUND>
Cc1ccc(C(=O)Nc2ccc(CN3CCN(C)CC3)c(C(F)(F)F)c2)cc1C#Cc1cnc2cccnn12

>  <ASSIGNED_LABEL>
true

$$$$
>  <COMPOUND>
O=c1c2ccccc2nc2n1CCc1c-2[nH]c2ccccc12

>  <ASSIGNED_LABEL>
false

$$$$
>  <COMPOUND>
Cc1[nH]nc2ccc(-c3cncc(OC[C@@H](N)Cc4ccccc4)c3)cc12

>  <ASSIGNED_LABEL>
true

$$$$
>  <COMPOUND>
COc1cc2c(Oc3ccc(-c4cnc(Nc5ccc(F)cc5)n(C)c4=O)cc3F)ccnc2cc1OCCCN1CCOCC1

>  <ASSIGNED_LABEL>
false

$$$$
>  <COMPOUND>
CN(C1CCc2c(c3ccccc3n2CC(=O)O)C1)S(=O)(=O)c1ccc(F)cc1 (stereo not given)

>  <ASSIGNED_LABEL>
false

$$$$

From: PubChem BioAssay (NCATS)
